- target.entity: KLK7 (Homo sapiens, UniProt P49862)
- assay.explanation: enzyme inhibition assay (fluorogenic substrate); selectivity: inhibition of KLK7, KLK8 or KLK14 activity by the peptide, n = 3; substrates and conditions in the Supporting Information
pIC50: −log10 of the molar value. Bridge positions count the residues as written; N and C are the ends.
measurement.name: pIC50

State recorded pIC50 for all listed binders.
1. cyclo(GRCTRSIPPHCWPD) (disulfide 3-11 (inferred)) [SFTI-1 triple mutant 2, cyclo-[…]]
2. cyclo(GFCHRSYPPECWPN) (disulfide 3-11 (inferred), SFTI scaffold grafted with residues of a LEKTI or LEKTI-like domain, glutamic acid at position 10; also called compound 8; source: synthetic peptide (hydrazide peptide, cyclised via native chemical ligation, oxidised, RP-HPLC purified)) [SFTI analogue 8]
3. cyclo(GFCTRSNPPECWPN) (disulfide 3-11 (inferred), SFTI scaffold grafted with residues of a LEKTI domain, glutamic acid at position 10; source: synthetic peptide (hydrazide peptide, cyclised via native chemical ligation, oxidised, RP-HPLC purified)) [LEKTI-grafted SFTI analogue, lead 7]

Result ::
6.27
< 6.00
< 6.00
